Published pIC50 for Receptor-interacting serine/threonine-protein kinase 1 (Homo sapiens), assembled from different documents, is shown next.
pIC50: −log10 of the molar value.

// solved cases for pIC50 follow
{"compound": "COCc1cc(=O)c(C(=O)Nc2cccc(Cl)c2F)nn1C", "recorded.result": 4.48}
{"compound": "O=C(C1CCN(c2nccc(=O)[nH]2)CC1)N1N=CC[C@H]1c1cc(F)cc(F)c1", "recorded.result": "7.50 to 9.00"}
{"compound": "Cn1cc(C(=O)NCc2ccc(N3CCOCC3)cc2)c2cc(-c3ccn4nc(NC(=O)C5CC5)nc4c3)ccc21", "recorded.result": "≤ 6.00"}

Each compound below has a reported value. Please supply its pIC50.
1. O=C1c2nc(Cc3ccccc3)cn2CCN1c1cccc(Cl)c1
2. O=C(C1CCN(c2ccc3nccn3n2)CC1)N1N=CC[C@H]1c1cncc(F)c1
3. CC(C)C(=O)Nc1nc2cc(-c3ccc4c(c3)c(C(=O)N[C@@H](C)c3cccc(Cl)c3)cn4C)ccn2n1
4. O=C(NCc1ccc(C(F)(F)F)cc1)c1c[nH]c2ccc(-c3ccc4nc(NC(=O)C5CC5)sc4c3)cc12
5. O=C(NC1CCNCC1)c1ccnc(N2CCC(C(=O)N3N=CC[C@H]3c3ccccc3)CC2)n1

1. 4.86
2. 7.50 to 9.00
3. 7.00 to 8.00
4. 7.00 to 8.00
5. 7.50 to 9.00

Dear colleague, could you please provide pIC50 for the compounds listed below?
1. CC(C)C(=O)Nc1nc2cc(-c3ccc4c(c3)c(C(=O)NC(C)c3ccccc3)cn4C)ccn2n1 (stereo not drawn)
2. C[C@H](NC(=O)c1ccc2ncc(-c3ccn4nc(NC(=O)C5CC5)nc4c3)cc2c1)c1cccc(F)c1

1: 7.00 to 8.00; 2: 7.00 to 8.00

Below are some compounds; for each one, tell me its pIC50.
1. CN1C(=O)C(NC(=O)c2n[nH]c(Cc3ccccc3)n2)CCc2ccc(N3CCC4(CCOCC4)CC3)cc21 (racemic)
2. CN1C(=O)[C@@H](NC(=O)c2n[nH]c(Cc3ccccc3)n2)CCc2ccc(C#CC(C)(C)C)cc21
3. C[C@H](NC(=O)c1cn(C)c2ccc(-c3ccc4c(C(=O)NCC(C)(C)C)c[nH]c4c3)cc12)c1cccc(F)c1
4. NC(=O)c1cnc(N2CCC(C(=O)N3N=CC[C@H]3c3cc(F)ccc3F)CC2)nc1
5. Cn1cc(CNC(=O)c2c[nH]c3ccc(-c4ccc5nc(NC(=O)C6CC6)sc5c4)cc23)cn1
6. CCOC(=O)c1cnc(N2CCC(C(=O)N3N=CC[C@H]3c3cc(F)cc(F)c3)CC2)o1

6.43
7.20
8.00 to 9.00
7.50 to 9.00
≤ 6.00
7.50 to 9.00
